# credit: patent US11498899B2

# Tested on: corn (Zea mays)
# protocolText: Test A postemergence, visual injury rating 0-100
# Type: in vivo
# measurementSetup: 500 g ai/ha, 0 to 100 scale
assayReadout: Corn plant response rating
Form: value (number only, do not type unit).

response.value for CC1=[N+]([O-])C(C(=O)Nc2ccccc2C#N)C(c2ccc(C(F)(F)F)cc2)C1 (racemic) [Compound 32] (field: Corn plant response rating) = 50

Briefly, Corn plant response rating measured for CC1=[N+]([O-])C(C(=O)Nc2cccc(F)c2F)C(c2cccc(Cl)n2)C1 (stereo not shown) [Compound 89] : 0

Entry under test: CC1=[N+]([O-])C(C(=O)Nc2cccc(F)c2F)C(c2ccc(C#N)cc2)C1 (racemic) [Compound 22] . Its Corn plant response rating was 0

Measured Corn plant response rating of CC1=[N+]([O-])C(C(=O)Nc2cccc(F)c2F)C(c2cccc(C)n2)C1 (racemic) [Compound 49] : 0

====

Please respond with reported Wheat plant response rating for every item in the list.
# Test system: wheat (Triticum aestivum)
# protocolText: Test A postemergence, visual injury rating 0-100
# Type: in vivo
# measurementSetup: 125 g ai/ha, 0 to 100 scale
# Description: […]
Provide a numeric answer; units are not to be included.

Per the record, CC1=[N+]([O-])C(C(=O)Nc2cccc(F)c2F)C(c2ccc(C)c(Br)c2)C1 (racemic) [Compound 71] has Wheat plant response rating of 20

// CC1=[N+]([O-])C(C(=O)Nc2cccc(F)c2F)C(c2ccc(F)c(Oc3ccc(F)cn3)c2)C1 (racemic) [Compound 48] : Wheat plant response rating value = 0

Briefly, Wheat plant response rating measured for CC1=[N+]([O-])C(C(=O)Nc2cccc(F)c2F)C(c2cc(C)nc(OC(F)F)c2)C1 (racemic) [Compound 83] : 60

CC1=[N+]([O-])C(C(=O)Nc2cccc(F)n2)C(c2ccc(C(F)(F)F)cc2)C1 (racemic) [Compound 47] has a reported Wheat plant response rating of 0

Query CC1=[N+]([O-])C(C(=O)Nc2ccccc2C(F)(F)F)C(c2ccc(C(F)(F)F)cc2)C1 (racemic) [Compound 33] yields Wheat plant response rating of 0

Briefly, Wheat plant response rating measured for CC1=[N+]([O-])C(C(=O)Nc2cccc(F)c2F)C(c2ccc(F)c(F)c2)C1 (racemic) [Compound 10] : 0

// recorded Wheat plant response rating for CC1=[N+]([O-])[C@H](C(=O)Nc2cccc(F)c2F)[C@@H](c2ccc(C(F)(F)F)c(F)c2)C1 (relative stereo) [Compound 61] : 70

====

# Tested on: ragweed (common ragweed, Ambrosia elatior)
# protocolText: Test A postemergence, visual injury rating 0-100
# Type: in vivo
# measurementSetup: 500 g ai/ha, 0 to 100 scale
Answer each item with its documented Ragweed plant response rating.

Short answer for CC1=[N+]([O-])C(C(=O)Nc2cccc(F)c2F)C(c2cc(C)n(Cc3ccc(Cl)cc3)c(=O)c2)C1 (racemic) : Ragweed plant response rating was 0

So, COc1cc(C)cc(C2CC(C)=[N+]([O-])C2C(=O)Nc2cccc(F)c2F)c1 (stereo not shown) ? Its Ragweed plant response rating was 30

// Ragweed plant response rating lookup, molecule = CC1=[N+]([O-])C(C(=O)Nc2cccc(F)c2F)C(c2cc(C)nc(OC(F)F)c2)C1 (racemic) , result: 70

Looking up CC1=[N+]([O-])C(C)(C(=O)Nc2cccc(F)c2F)C(c2ccc(C(F)(F)F)cc2)C1 (racemic) , I see its Ragweed plant response rating listed as 30

The reported value for CC1=[N+]([O-])C(C(=O)Nc2cccc(F)c2F)C(c2ccc(F)c(C(F)(F)F)c2)C1 (racemic) in terms of Ragweed plant response rating is 40

Sure, the documented Ragweed plant response rating for CC1=[N+]([O-])[C@H](C(=O)Nc2ccc(F)nc2F)[C@@H](c2ccc(C(F)(F)F)cc2)C1 (relative stereo) is 60

Item: CC1=[N+]([O-])C(C(=O)Nc2cccc(F)c2F)C(c2cc(F)c(F)c(F)c2)C1 (stereo not shown) | Ragweed plant response rating: 20

Value of measured Ragweed plant response rating for the entry CC1=[N+]([O-])C(C(=O)Nc2cccc(F)c2F)C(c2ccc(C#N)cc2)C1 (racemic) : 0

Value of Ragweed plant response rating reported for the molecule CC1=[N+]([O-])C(C(=O)Nc2cccc(F)c2F)C(c2cccc(C(C)C)c2)C1 (racemic) is 40

Record summary for CC1=[N+]([O-])C(C(=O)Nc2ccc(F)cc2F)C(c2ccc(C(F)(F)F)cc2)C1 (racemic) : reported Ragweed plant response rating = 30

# Ragweed plant response rating of CC1=[N+]([O-])C(C(=O)Nc2cccc(F)n2)C(c2ccc(C(F)(F)F)cc2)C1 (racemic) = 40

response.value for CC1=[N+]([O-])C(C(=O)Nc2ccccc2C#N)C(c2ccc(C(F)(F)F)cc2)C1 (racemic) (field: Ragweed plant response rating) = 20

// CC1=[N+]([O-])C(C(=O)Nc2cccc(F)c2F)C(c2cc(C)cc(CF)c2)C1 (racemic) : Ragweed plant response rating value = 50

Input CC1=[N+]([O-])C(C(=O)Nc2cccc(F)c2F)C(c2ccc(C(F)(F)F)c(C)c2)C1 (racemic) . Output Ragweed plant response rating: 30

Sure, the documented Ragweed plant response rating for COc1cc(C2CC(C)=[N+]([O-])C2C(=O)Nc2cccc(F)c2F)cc(C)n1 (racemic) is 0

Entry CC1=[N+]([O-])C(C(=O)Nc2cccc(F)c2F)C(c2ccc(F)c(F)c2)C1 (racemic) — recorded Ragweed plant response rating = 20

According to the records, this molecule CC1=[N+]([O-])C(C(=O)Nc2cccc(F)c2F)C(c2cc(C)ccc2C)C1 (racemic) displays Ragweed plant response rating of 30

// Ragweed plant response rating lookup, molecule = CC1=[N+]([O-])C(C(=O)Nc2cccc(F)c2Cl)C(c2ccc(C(F)(F)F)cc2)C1 (racemic) , result: 20

Sure, the documented Ragweed plant response rating for CC1=[N+]([O-])[C@H](C(=O)Nc2cccc(F)c2F)[C@@H](c2ccc3c(c2)OC(F)(F)O3)C1 (relative stereo) is 50

Note to self: Ragweed plant response rating recorded for CC1=[N+]([O-])C(C(=O)Nc2cccc(F)c2F)C(c2ccc(=O)n(Cc3ccc(Cl)cc3)c2)C1 (racemic) was 0

What the record says about CC1=[N+]([O-])[C@@H](C(=O)Nc2cccc(F)c2F)[C@H](c2ccc(Cl)cc2)C1 (relative stereo) : Ragweed plant response rating is 70

// Ragweed plant response rating lookup, molecule = CC1=[N+]([O-])C(C(=O)Nc2ccncc2C(F)(F)F)C(c2ccc(C(F)(F)F)cc2)C1 (racemic) , result: 0

Briefly, Ragweed plant response rating measured for CC1=[N+]([O-])C(C(=O)Nc2cccc(F)c2F)C(c2cc(F)cc(Oc3ccc(Cl)nc3)c2)C1 (racemic) : 40

Reported Ragweed plant response rating ( CC1=[N+]([O-])C(C(=O)Nc2cccc(F)c2F)C(c2ccc(F)c(Cl)c2)C1 (racemic) ) = 20

Lab note: CC1=[N+]([O-])C(C(=O)Nc2cccc(F)c2F)C(c2cccc(C(F)(F)F)n2)C1 (stereo not shown) gave Ragweed plant response rating of 0

Reported Ragweed plant response rating ( CC1=[N+]([O-])C(C(=O)Nc2ccc(F)c(F)c2F)C(c2ccc(C(F)(F)F)cc2)C1 (racemic) ) = 20

Reported Ragweed plant response rating ( COc1cc(C2CC(C)=[N+]([O-])C2C(=O)Nc2cccc(F)c2F)ccc1C(F)(F)F (stereo not shown) ) = 70

Given item CC1=[N+]([O-])C(C(=O)Nc2cccc(F)c2F)C(c2cccc(C3OCCO3)c2)C1 (racemic) , the value recorded as its Ragweed plant response rating is 40
